- Test system: Hepatotoxicity
- assayDetails: FDA HLAED, serum glutamic pyruvic transaminase (SGPT) increase
- protocolConditions: human
readoutLabel: SGPT Increase - Activity Score

Known results for molecules:
[[record]]
molecule = "CCOC(=O)OC(C)OC(=O)[C@@H]1N2C(=O)[C@@H](NC(=O)[C@H](N)c3ccccc3)[C@H]2SC1(C)C (some centres undefined)"
observedvalue = "Inactive"

[[record]]
molecule = "COc1ccc(CCN2CCC(Nc3nc4ccccc4n3Cc3ccc(F)cc3)CC2)cc1"
observedvalue = "Inactive"

[[record]]
molecule = "Nc1nc(/C(=C/CC(=O)O)C(=O)N[C@@H]2C(=O)N3C(C(=O)O)=CCS[C@H]23)cs1"
observedvalue = "Inactive"

[[record]]
molecule = "Cc1cc2c(s1)Nc1ccccc1N=C2N1CCN(C)CC1"
observedvalue = "Active"

[[record]]
molecule = "O=c1[nH]c2ccccc2n1C1CCN(CCCC(c2ccc(F)cc2)c2ccc(F)cc2)CC1 [PIMOZIDE]"
observedvalue = "Inactive"

[[record]]
molecule = "CN1CCN(C2=Nc3ccccc3Oc3ccc(Cl)cc32)CC1"
observedvalue = "Active"

[[record]]
molecule = "Oc1ncnc2[nH]ncc12"
observedvalue = "Active"

[[record]]
molecule = "O=C1CN=C(c2ccccc2)c2cc(Cl)ccc2N1CC(F)(F)F"
observedvalue = "Inactive"


CCn1cc(C(=O)O)c(=O)c2cc(F)c(N3CCNCC3)nc21 yielded SGPT Increase - Activity Score of Inactive

COC1=CC(=O)C[C@@H](C)[C@]12Oc1c(Cl)c(OC)cc(OC)c1C2=O yielded SGPT Increase - Activity Score of Active

C[C@](N)(Cc1ccc(O)cc1)C(=O)O yielded SGPT Increase - Activity Score of Inactive

CC(C)(C)NC(=O)[C@@H]1CN(Cc2cccnc2)CCN1C[C@@H](O)C[C@@H](Cc1ccccc1)C(=O)N[C@H]1c2ccccc2C[C@H]1O.O yielded SGPT Increase - Activity Score of Active

CCCCCCC(=O)O[C@H]1CC[C@H]2[C@@H]3CCC4=CC(=O)CC[C@]4(C)[C@H]3CC[C@]12C [TESTOSTERONE ENANTHATE] yielded SGPT Increase - Activity Score of Inactive
